target: human PD-L1 expressed on cell surface (human, UniProt Q9NZQ7 19-290); experiment: cell-based or functional assay
Sequence (Q9NZQ7 19-290 limits assumed): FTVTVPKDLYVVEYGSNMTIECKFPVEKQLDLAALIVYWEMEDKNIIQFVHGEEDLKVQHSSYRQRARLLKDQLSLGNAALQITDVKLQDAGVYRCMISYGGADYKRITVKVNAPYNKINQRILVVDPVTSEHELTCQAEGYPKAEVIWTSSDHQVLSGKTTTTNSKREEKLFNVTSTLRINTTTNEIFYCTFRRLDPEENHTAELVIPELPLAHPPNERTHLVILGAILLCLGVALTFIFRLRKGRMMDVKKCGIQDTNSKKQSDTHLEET
Below: a set of entries, each annotated with reported Internalization (%), FACS, 0.25 µg/ml, 4 h.
The reply should be a number in %, with the unit left off.

>>> experimental_value("74F4 (antibody, human IgG1, V domains shown) VH: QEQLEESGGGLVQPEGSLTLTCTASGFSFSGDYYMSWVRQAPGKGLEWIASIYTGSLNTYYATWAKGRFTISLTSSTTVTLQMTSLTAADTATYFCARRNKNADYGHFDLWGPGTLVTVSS VL: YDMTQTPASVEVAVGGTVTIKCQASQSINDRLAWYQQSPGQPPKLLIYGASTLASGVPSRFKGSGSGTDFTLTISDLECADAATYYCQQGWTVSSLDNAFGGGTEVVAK")
15.3
>>> experimental_value("56E5 (antibody, human IgG1, V domains shown) VH: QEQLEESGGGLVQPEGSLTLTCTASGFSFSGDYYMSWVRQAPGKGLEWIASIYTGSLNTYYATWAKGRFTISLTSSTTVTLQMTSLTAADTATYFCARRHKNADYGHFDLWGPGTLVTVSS VL: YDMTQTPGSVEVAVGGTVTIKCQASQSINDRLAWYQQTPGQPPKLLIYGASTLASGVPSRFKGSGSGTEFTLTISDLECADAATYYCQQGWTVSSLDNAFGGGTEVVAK")
22.1
>>> experimental_value("74A9 (antibody, human IgG1, V domains shown) VH: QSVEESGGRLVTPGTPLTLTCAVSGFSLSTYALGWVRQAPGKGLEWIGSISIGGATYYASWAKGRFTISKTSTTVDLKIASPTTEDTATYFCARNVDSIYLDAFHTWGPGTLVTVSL VL: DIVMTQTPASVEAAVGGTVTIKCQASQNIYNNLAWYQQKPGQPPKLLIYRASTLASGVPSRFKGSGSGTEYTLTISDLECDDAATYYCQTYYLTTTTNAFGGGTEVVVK")
11
>>> experimental_value("57F11 (antibody, human IgG1, V domains shown) VH: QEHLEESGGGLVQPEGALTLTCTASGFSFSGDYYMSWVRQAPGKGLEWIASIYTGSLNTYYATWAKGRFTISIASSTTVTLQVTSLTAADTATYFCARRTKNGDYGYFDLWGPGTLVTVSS VL: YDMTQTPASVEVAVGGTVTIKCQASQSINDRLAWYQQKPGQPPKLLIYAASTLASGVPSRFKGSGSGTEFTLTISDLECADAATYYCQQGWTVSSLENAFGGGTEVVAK")
21.3

In the following, a different binder is considered.
Consider the binder 69D10 (antibody, human IgG1, V domains shown) VH: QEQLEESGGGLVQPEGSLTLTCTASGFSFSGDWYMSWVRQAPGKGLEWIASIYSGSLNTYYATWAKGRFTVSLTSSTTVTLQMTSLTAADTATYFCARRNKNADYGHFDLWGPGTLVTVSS VL: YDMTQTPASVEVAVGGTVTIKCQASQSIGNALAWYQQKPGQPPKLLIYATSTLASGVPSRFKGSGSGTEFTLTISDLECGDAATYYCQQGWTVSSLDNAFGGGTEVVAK and give its recorded Internalization (%), FACS, 0.25 µg/ml, 4 h.
15.9

Data provenance is patent US20250171542A1.
